stated.conditions: in ethyl acetate, 313.15 K
metric: solubility (mole fraction)
Answer using only a numeral; do not append any unit.

[Q] Returns the measured solubility (mole fraction) for the input compound. Input: C[C@H](CCC(=O)O)[C@H]1CC[C@H]2[C@@H]3CC[C@@H]4C[C@H](O)CC[C@]4(C)[C@H]3C[C@H](O)[C@]12C
[A] 0.000771

[Q] Would you kindly repeat that for C[C@H](CCC(=O)O)[C@H]1CC[C@H]2[C@@H]3[C@H](O)C[C@@H]4C[C@H](O)CC[C@]4(C)[C@H]3C[C@H](O)[C@]12C ?
[A] 0.000536

###

Kindly state solubility (mole fraction) for each of the entries shown.
stated.conditions: in n-butyl acetate, 293.15 K
Answer using only a numeral; do not append any unit.

[Q] Returns the measured solubility (mole fraction) for the input compound. Input: C[C@H](CCC(=O)O)[C@H]1CC[C@H]2[C@@H]3[C@H](O)C[C@@H]4C[C@H](O)CC[C@]4(C)[C@H]3C[C@H](O)[C@]12C
[A] 0.000284

[Q] Would you kindly repeat that for C[C@H](CCC(=O)O)[C@H]1CC[C@H]2[C@@H]3CC[C@@H]4C[C@H](O)CC[C@]4(C)[C@H]3C[C@H](O)[C@]12C ?
[A] 0.000275

###

Kindly state solubility (mole fraction) for each of the entries shown.
stated.conditions: in 2-pentanone, 323.15 K
Answer using only a numeral; do not append any unit.

[Q] Returns the measured solubility (mole fraction) for the input compound. Input: C[C@H](CCC(=O)O)[C@H]1CC[C@H]2[C@@H]3CC[C@@H]4C[C@H](O)CC[C@]4(C)[C@H]3C[C@H](O)[C@]12C
[A] 0.00378

[Q] Would you kindly repeat that for C[C@H](CCC(=O)O)[C@H]1CC[C@H]2[C@@H]3[C@H](O)C[C@@H]4C[C@H](O)CC[C@]4(C)[C@H]3C[C@H](O)[C@]12C ?
[A] 0.00299

###

stated.conditions: in ethyl acetate, 333.15 K
Kindly state solubility (mole fraction) for each of the entries shown.

[Q] Returns the measured solubility (mole fraction) for the input molecule. Input: C[C@H](CCC(=O)O)[C@H]1CC[C@H]2[C@@H]3CC[C@@H]4C[C@H](O)CC[C@]4(C)[C@H]3C[C@H](O)[C@]12C
[A] 0.00147

[Q] Would you kindly repeat that for C[C@H](CCC(=O)O)[C@H]1CC[C@H]2[C@@H]3[C@H](O)C[C@@H]4C[C@H](O)CC[C@]4(C)[C@H]3C[C@H](O)[C@]12C ?
[A] 0.000942

###

Kindly state solubility (mole fraction) for each of the entries shown.
stated.conditions: in cyclohexanone, 333.15 K
Answer using only a numeral; do not append any unit.

[Q] Returns the measured solubility (mole fraction) for the input molecule. Input: C[C@H](CCC(=O)O)[C@H]1CC[C@H]2[C@@H]3[C@H](O)C[C@@H]4C[C@H](O)CC[C@]4(C)[C@H]3C[C@H](O)[C@]12C
[A] 0.0137

[Q] Would you kindly repeat that for C[C@H](CCC(=O)O)[C@H]1CC[C@H]2[C@@H]3CC[C@@H]4C[C@H](O)CC[C@]4(C)[C@H]3C[C@H](O)[C@]12C ?
[A] 0.00744

###

Kindly state solubility (mole fraction) for each of the entries shown.
stated.conditions: in n-octanol, 293.15 K
Answer using only a numeral; do not append any unit.

[Q] Returns the measured solubility (mole fraction) for the input compound. Input: C[C@H](CCC(=O)O)[C@H]1CC[C@H]2[C@@H]3[C@H](O)C[C@@H]4C[C@H](O)CC[C@]4(C)[C@H]3C[C@H](O)[C@]12C
[A] 0.0171

[Q] Would you kindly repeat that for C[C@H](CCC(=O)O)[C@H]1CC[C@H]2[C@@H]3CC[C@@H]4C[C@H](O)CC[C@]4(C)[C@H]3C[C@H](O)[C@]12C ?
[A] 0.0116

###

stated.conditions: in ethyl acetate, 323.15 K
metric: solubility (mole fraction)
Answer using only a numeral; do not append any unit.

[Q] Returns the measured solubility (mole fraction) for the input compound. Input: C[C@H](CCC(=O)O)[C@H]1CC[C@H]2[C@@H]3[C@H](O)C[C@@H]4C[C@H](O)CC[C@]4(C)[C@H]3C[C@H](O)[C@]12C
[A] 0.000713

[Q] Would you kindly repeat that for C[C@H](CCC(=O)O)[C@H]1CC[C@H]2[C@@H]3CC[C@@H]4C[C@H](O)CC[C@]4(C)[C@H]3C[C@H](O)[C@]12C ?
[A] 0.0011

###

Kindly state solubility (mole fraction) for each of the entries shown.
stated.conditions: in ethyl acetate, 283.15 K
Answer using only a numeral; do not append any unit.

[Q] Returns the measured solubility (mole fraction) for the input molecule. Input: C[C@H](CCC(=O)O)[C@H]1CC[C@H]2[C@@H]3[C@H](O)C[C@@H]4C[C@H](O)CC[C@]4(C)[C@H]3C[C@H](O)[C@]12C
[A] 0.000154

[Q] Would you kindly repeat that for C[C@H](CCC(=O)O)[C@H]1CC[C@H]2[C@@H]3CC[C@@H]4C[C@H](O)CC[C@]4(C)[C@H]3C[C@H](O)[C@]12C ?
[A] 0.000187

###

stated.conditions: in n-butanol, 333.15 K
metric: solubility (mole fraction)
Answer using only a numeral; do not append any unit.

[Q] Returns the measured solubility (mole fraction) for the input molecule. Input: C[C@H](CCC(=O)O)[C@H]1CC[C@H]2[C@@H]3CC[C@@H]4C[C@H](O)CC[C@]4(C)[C@H]3C[C@H](O)[C@]12C
[A] 0.00315

[Q] Would you kindly repeat that for C[C@H](CCC(=O)O)[C@H]1CC[C@H]2[C@@H]3[C@H](O)C[C@@H]4C[C@H](O)CC[C@]4(C)[C@H]3C[C@H](O)[C@]12C ?
[A] 0.00389

###

Kindly state solubility (mole fraction) for each of the entries shown.
stated.conditions: in methyl acetate, 283.15 K
Answer using only a numeral; do not append any unit.

[Q] Returns the measured solubility (mole fraction) for the input compound. Input: C[C@H](CCC(=O)O)[C@H]1CC[C@H]2[C@@H]3CC[C@@H]4C[C@H](O)CC[C@]4(C)[C@H]3C[C@H](O)[C@]12C
[A] 0.000224

[Q] Would you kindly repeat that for C[C@H](CCC(=O)O)[C@H]1CC[C@H]2[C@@H]3[C@H](O)C[C@@H]4C[C@H](O)CC[C@]4(C)[C@H]3C[C@H](O)[C@]12C ?
[A] 7.59e-05

###

stated.conditions: in furfural, 303.15 K
Kindly state solubility (mole fraction) for each of the entries shown.
Answer using only a numeral; do not append any unit.

[Q] Returns the measured solubility (mole fraction) for the input molecule. Input: C[C@H](CCC(=O)O)[C@H]1CC[C@H]2[C@@H]3CC[C@@H]4C[C@H](O)CC[C@]4(C)[C@H]3C[C@H](O)[C@]12C
[A] 0.000478

[Q] Would you kindly repeat that for C[C@H](CCC(=O)O)[C@H]1CC[C@H]2[C@@H]3[C@H](O)C[C@@H]4C[C@H](O)CC[C@]4(C)[C@H]3C[C@H](O)[C@]12C ?
[A] 0.000127

###

stated.conditions: in n-octanol, 313.15 K
Kindly state solubility (mole fraction) for each of the entries shown.
Answer using only a numeral; do not append any unit.

[Q] Returns the measured solubility (mole fraction) for the input molecule. Input: C[C@H](CCC(=O)O)[C@H]1CC[C@H]2[C@@H]3[C@H](O)C[C@@H]4C[C@H](O)CC[C@]4(C)[C@H]3C[C@H](O)[C@]12C
[A] 0.0201

[Q] Would you kindly repeat that for C[C@H](CCC(=O)O)[C@H]1CC[C@H]2[C@@H]3CC[C@@H]4C[C@H](O)CC[C@]4(C)[C@H]3C[C@H](O)[C@]12C ?
[A] 0.016

###

stated.conditions: in 2-pentanone, 283.15 K
Kindly state solubility (mole fraction) for each of the entries shown.
Answer using only a numeral; do not append any unit.

[Q] Returns the measured solubility (mole fraction) for the input molecule. Input: C[C@H](CCC(=O)O)[C@H]1CC[C@H]2[C@@H]3CC[C@@H]4C[C@H](O)CC[C@]4(C)[C@H]3C[C@H](O)[C@]12C
[A] 0.000911

[Q] Would you kindly repeat that for C[C@H](CCC(=O)O)[C@H]1CC[C@H]2[C@@H]3[C@H](O)C[C@@H]4C[C@H](O)CC[C@]4(C)[C@H]3C[C@H](O)[C@]12C ?
[A] 0.00141

###

stated.conditions: in 2-pentanone, 293.15 K
metric: solubility (mole fraction)
Answer using only a numeral; do not append any unit.

[Q] Returns the measured solubility (mole fraction) for the input molecule. Input: C[C@H](CCC(=O)O)[C@H]1CC[C@H]2[C@@H]3[C@H](O)C[C@@H]4C[C@H](O)CC[C@]4(C)[C@H]3C[C@H](O)[C@]12C
[A] 0.00164

[Q] Would you kindly repeat that for C[C@H](CCC(=O)O)[C@H]1CC[C@H]2[C@@H]3CC[C@@H]4C[C@H](O)CC[C@]4(C)[C@H]3C[C@H](O)[C@]12C ?
[A] 0.00145
